Taken from patent US11098043B2.

Item-by-item account of Selectivity Value [BRD4(1) IC50 (μM)/CBP IC50 (μM)]
Molecular target: CBP bromodomain (Homo sapiens)
Construct: docked complex of Compound 21 with CBP bromodomain
Assay: AlphaScreen in vitro binding assay with CBP
Conditions: ratio BRD4(1) IC50 / CBP IC50
testReadout: Selectivity Value [BRD4(1) IC50 (μM)/CBP IC50 (μM)]

>  <smilesCode>
COc1ccc(CCc2nc3cc(-c4c(C)noc4C)ccn3c2N[C@H](C)c2ccccc2)cc1

>  <result>
7

$$$$
>  <smilesCode>
COc1ccc(CCc2nc3cc(-c4c(C)noc4C)ccn3c2NC(C)C)cc1

>  <result>
34

$$$$
>  <smilesCode>
Cc1noc(C)c1-c1ccn2c(NC34CC5CC(CC(C5)C3)C4)c(CCc3ccccc3)nc2c1

>  <result>
7

$$$$
>  <smilesCode>
Cc1[nH]nc2ccc(-c3ccn4c(NC5CCCCC5)c(CCc5ccccc5)nc4c3)cc12

>  <result>
<1

$$$$
>  <smilesCode>
CN1Cc2cc(-c3ccn4c(NC5CCCCC5)c(CCc5ccccc5)nc4c3)ccc2NC1=O

>  <result>
<1

$$$$
>  <smilesCode>
Cc1noc(C)c1-c1ccn2c(NC(C)(C)CC(C)(C)C)c(CCc3ccc(OC(C)C)cc3)nc2c1

>  <result>
1

$$$$
>  <smilesCode>
COc1ccc(CCc2nc3cc(-c4c(C)noc4C)ccn3c2NC(C)C)cc1OC

>  <result>
6

$$$$
>  <smilesCode>
CCCOc1ccc(CCc2nc3cc(-c4c(C)noc4C)ccn3c2NC2CCCCC2)cc1

>  <result>
28

$$$$

* * *

Target: CBP bromodomain (Homo sapiens, UniProt Q92793)
Construct: docked complex of Compound 21 with CBP bromodomain
Sequence (Q92793 1085-1192 limits assumed): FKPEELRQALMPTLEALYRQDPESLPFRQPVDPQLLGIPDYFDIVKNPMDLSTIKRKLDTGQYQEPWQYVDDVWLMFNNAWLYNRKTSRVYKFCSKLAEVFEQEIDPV
Assay: AlphaScreen in vitro binding assay with CBP
Conditions: AlphaScreen, isolated CBP bromodomain; means of at least two determinations
# IC50 annotations

>  <compound>
CCOc1ccc(CCc2nc3cc(-c4c(C)noc4C)ccn3c2NC(C)(C)CC(C)(C)C)cc1Cl [Compound 32]

>  <sign>
=

>  <IC50 (nM)>
20500

$$$$
>  <compound>
COc1ccc(CCc2nc3cc(-c4c(C)noc4C)ccn3c2Nc2ccc(Cl)cc2)cc1 [Compound 25]

>  <sign>
=

>  <IC50 (nM)>
1610

$$$$
>  <compound>
COc1ccc(Cc2nc3cc(-c4c(C)noc4C)ccn3c2NC2CCCCC2)cc1 [Compound 26]

>  <sign>
=

>  <IC50 (nM)>
6070

$$$$
>  <compound>
COc1ccc(CCc2nc3cc(-c4c(C)noc4C)ccn3c2NC23CC4CC(CC(C4)C2)C3)cc1 [Compound 16]

>  <sign>
=

>  <IC50 (nM)>
923

$$$$
>  <compound>
COc1ccc(CCc2nc3cc(-c4c(C)noc4C)ccn3c2NC(C)C)cc1 [Compound 19]

>  <sign>
=

>  <IC50 (nM)>
296

$$$$
>  <compound>
COc1ccc(CCc2nc3cc(-c4c(C)noc4C)ccn3c2NCCN2CCOCC2)cc1 [Compound 17]

>  <sign>
=

>  <IC50 (nM)>
464

$$$$
>  <compound>
COc1ccc(-c2nc3cc(C)cc(C)n3c2NC23CC4CC(CC(C4)C2)C3)cc1 [Compound 1]

>  <sign>
=

>  <IC50 (nM)>
16100

$$$$
>  <compound>
Cc1sc2c(c1C)C(c1ccc(Cl)cc1)=N[C@@H](CC(=O)OC(C)(C)C)c1nnc(C)n1-2 [JQ1, reference compound]

>  <sign>
>

>  <IC50 (nM)>
50000

$$$$

* * *

Molecular target: CBP bromodomain (Homo sapiens, UniProt Q92793)
Construct: docked complex of Compound 21 with CBP bromodomain
Assay: AlphaScreen in vitro binding assay with CBP
Details: AlphaScreen, isolated CBP bromodomain; means of at least two determinations
testReadout: log10(IC50) (log10 of the value in nM)

>  <smilesCode>
COc1ccc(CCc2nc3cc(-c4c(C)noc4C)ccn3c2N[C@H](C)c2ccccc2)cc1

>  <log10(IC50)>
3.20

$$$$
>  <smilesCode>
COc1ccc(-c2nc3cc(-c4c(C)noc4C)ccn3c2NC23CC4CC(CC(C4)C2)C3)cc1

>  <log10(IC50)>
3.35

$$$$
>  <smilesCode>
Cc1noc(C)c1-c1ccn2c(NC(C)(C)C)c(CCc3ccccc3)nc2c1

>  <log10(IC50)>
2.98

$$$$
>  <smilesCode>
Cc1noc(C)c1-c1ccn2c(NCC(=O)OC(C)(C)C)c(CCc3ccccc3)nc2c1

>  <log10(IC50)>
3.89

$$$$
>  <smilesCode>
COc1ccc(CCc2nc3cc(-c4c(C)noc4C)ccn3c2NC(C)(C)CC(C)(C)C)cc1

>  <log10(IC50)>
4.32

$$$$
>  <smilesCode>
COc1ccc(-c2nc3cc(-c4c(C)noc4C)ccn3c2NCC(=O)OC(C)(C)C)cc1

>  <log10(IC50)>
3.07

$$$$
>  <smilesCode>
COc1ccc(CCc2nc3cc(-c4c(C)noc4C)ccn3c2NCC(=O)OC(C)(C)C)cc1

>  <log10(IC50)>
3.19

$$$$
>  <smilesCode>
CCOc1ccc(CCc2nc3cc(-c4c(C)noc4C)ccn3c2NC2CCCCC2)cc1Cl

>  <log10(IC50)>
3.40

$$$$

* * *

Target: CBP bromodomain (Homo sapiens)
Construct: docked complex of Compound 21 with CBP bromodomain
Experiment: AlphaScreen in vitro binding assay with CBP
Conditions: ratio BRD4(1) IC50 / CBP IC50
testReadout: Selectivity Value [BRD4(1) IC50 (μM)/CBP IC50 (μM)]

>  <smilesCode>
CCOc1ccc(CCc2nc3cc(-c4c(C)noc4C)ccn3c2NC2CCCCC2)cc1Cl

>  <measurementTarget>
CBP bromodomain (Homo sapiens)

>  <sign>
=

>  <number>
20

$$$$
>  <smilesCode>
COc1ccc(CCc2nc3cc(-c4c(C)noc4C)ccn3c2NCCN2CCOCC2)cc1

>  <measurementTarget>
CBP bromodomain (Homo sapiens)

>  <sign>
=

>  <number>
7

$$$$
>  <smilesCode>
Cc1noc(C)c1-c1ccn2c(NC(C)(C)CC(C)(C)C)c(CCc3ccccc3)nc2c1

>  <measurementTarget>
CBP bromodomain (Homo sapiens)

>  <sign>
=

>  <number>
1

$$$$
>  <smilesCode>
Cc1noc(C)c1-c1ccn2c(NCC(=O)OC(C)(C)C)c(CCc3ccccc3)nc2c1

>  <measurementTarget>
CBP bromodomain (Homo sapiens)

>  <sign>
>

>  <number>
6

$$$$
>  <smilesCode>
COc1ccc(CCc2nc3cc(-c4c(C)noc4C)ccn3c2NC23CC4CC(CC(C4)C2)C3)cc1

>  <measurementTarget>
CBP bromodomain (Homo sapiens)

>  <sign>
=

>  <number>
8

$$$$
>  <smilesCode>
COc1ccc(-c2nc3cc(-c4c(C)noc4C)ccn3c2NC2CCCCC2)cc1

>  <measurementTarget>
CBP bromodomain (Homo sapiens)

>  <sign>
>

>  <number>
4

$$$$
>  <smilesCode>
COc1ccc(CCc2nc3cc(-c4c(C)noc4C)ccn3c2Nc2ccc(Cl)cc2)cc1

>  <measurementTarget>
CBP bromodomain (Homo sapiens)

>  <sign>
=

>  <number>
5

$$$$
>  <smilesCode>
CCOc1ccc(CCc2nc3cc(-c4c(C)noc4C)ccn3c2NC(C)(C)CC(C)(C)C)cc1

>  <measurementTarget>
CBP bromodomain (Homo sapiens)

>  <sign>
>

>  <number>
1

$$$$
>  <smilesCode>
COc1ccc(CCCc2nc3cc(-c4c(C)noc4C)ccn3c2NC(C)(C)CC(C)(C)C)cc1

>  <measurementTarget>
CBP bromodomain (Homo sapiens)

>  <sign>
=

>  <number>
1

$$$$
>  <smilesCode>
COc1ccc(Cc2nc3cc(-c4c(C)noc4C)ccn3c2NC2CCCCC2)cc1

>  <measurementTarget>
CBP bromodomain (Homo sapiens)

>  <sign>
=

>  <number>
2

$$$$
>  <smilesCode>
COc1ccc(CCc2nc3cc(-c4c(C)noc4C)ccn3c2NC(C)(C)CC(C)(C)C)cc1

>  <measurementTarget>
CBP bromodomain (Homo sapiens)

>  <sign>
>

>  <number>
2

$$$$
>  <smilesCode>
COc1ccc(CCc2nc3cc(-c4c(C)noc4C)ccn3c2NC2CCCCC2)cc1OC

>  <measurementTarget>
CBP bromodomain (Homo sapiens)

>  <sign>
=

>  <number>
8

$$$$
>  <smilesCode>
COc1ccc(CCc2nc3cc(-c4c(C)noc4C)ccn3c2NCc2ccccc2)cc1

>  <measurementTarget>
CBP bromodomain (Homo sapiens)

>  <sign>
=

>  <number>
4

$$$$
>  <smilesCode>
COc1ccc(CCc2nc3cc(-c4c(C)noc4C)ccn3c2NC2CCCCC2)cc1

>  <measurementTarget>
CBP bromodomain (Homo sapiens)

>  <sign>
=

>  <number>
41

$$$$
>  <smilesCode>
COc1ccc(-c2nc3cc(-c4c(C)noc4C)ccn3c2NCC(=O)OC(C)(C)C)cc1

>  <measurementTarget>
CBP bromodomain (Homo sapiens)

>  <sign>
=

>  <number>
3

$$$$
>  <smilesCode>
COc1ccc(-c2nc3cc(-c4c(C)noc4C)ccn3c2NC23CC4CC(CC(C4)C2)C3)cc1

>  <measurementTarget>
CBP bromodomain (Homo sapiens)

>  <sign>
>

>  <number>
23

$$$$
>  <smilesCode>
COc1ccc(-c2nc3cc(C)cc(C)n3c2NC23CC4CC(CC(C4)C2)C3)cc1

>  <measurementTarget>
CBP bromodomain (Homo sapiens)

>  <sign>
>

>  <number>
3

$$$$
